Molecular target: T1, GFP-9S library array, motif 4 ND N98P;D124H (synthetic construct, N98P;D124H)
T1 chain: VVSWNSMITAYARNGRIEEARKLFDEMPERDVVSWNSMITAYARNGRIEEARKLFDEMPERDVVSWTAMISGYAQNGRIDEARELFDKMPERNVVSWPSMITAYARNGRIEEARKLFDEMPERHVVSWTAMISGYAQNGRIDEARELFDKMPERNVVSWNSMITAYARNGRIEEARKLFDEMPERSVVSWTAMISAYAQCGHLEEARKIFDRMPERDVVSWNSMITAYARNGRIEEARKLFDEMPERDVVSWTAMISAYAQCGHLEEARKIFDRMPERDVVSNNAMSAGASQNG
Experiment: high-throughput RNA pulldown from lysate on Ni-NTA beads; HRP: 50 mM Tris pH 8, 150 mM NaCl, 1 mM beta-mercaptoethanol, 50 ug/ml BSA, 3 ug/ml yeast RNA, 0.5% heparin; ITC and FP: Tris pH 8, 200 mM KCl, 5% glycerol; MST: 50 mM Tris pH 8, 200 mM NaCl, 1 mM DTT, BSA, heparin, 0.05% Tween 20
Conditions: tags: N-terminal His-eGFP; label: 5' IRDye 800CW
READOUT LABEL: pKd
Convention used: pKd is expressed as -log10 of the molar concentration.

Reported pKd, binder AUUAUACGUGA (ssRNA) [IR-rpoA-U] : ____ 6.84

One more binder: AUUAAACGUGA (ssRNA) [IR-rpoA-A] 6.48

Reference for the values: paper PMC8809517
